Details: in isopropanol, 291.15 K
readout-name: solubility (mole fraction)
The response must contain the number and no unit.

Ask: Fill blank: measured solubility (mole fraction) of the molecule CCn1c2ccccc2c2ccccc21 is ____.
Reply: 0.0107

====

Conditions: in isopropanol, 279.15 K
readout-name: solubility (mole fraction)
The response must contain the number and no unit.

Ask: Fill blank: measured solubility (mole fraction) of the compound CCn1c2ccccc2c2ccccc21 is ____.
Reply: 0.0065

====

Conditions: in n-butanol, 311.15 K
readout-name: solubility (mole fraction)

Ask: Fill blank: measured solubility (mole fraction) of the compound CCn1c2ccccc2c2ccccc21 is ____.
Reply: 0.0446
